Numbers sourced from paper PMC2756588.

- experimentalSystem: T1, Cyk3, Q07533
- T1 sequence (Q07533 1-83, looked up): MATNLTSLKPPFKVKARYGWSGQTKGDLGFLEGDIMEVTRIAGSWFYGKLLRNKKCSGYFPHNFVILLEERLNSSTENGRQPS
- assayRemarks: SPOT array
- conditionParameters: median of control spots 1451
measuredEndpoint: SPOT intensity

Query: Sample "NENKKLPPAPTVFGL" — what was its SPOT intensity?
Response: 1

Query: Sample "GKLKHIPRRPYEIER" — what was its SPOT intensity?
Response: 0

Query: Sample "MPAPPPPPPPPPGAF" — what was its SPOT intensity?
Response: 0

Query: Sample "FPGKKSPRLPHRNKK" — what was its SPOT intensity?
Response: 3

Query: Sample "ALFRLSFFFPLDPAY" — what was its SPOT intensity?
Response: 13

Further cases:
Query: Sample "PPPPPPPPPPLPQSL" — what was its SPOT intensity?
Response: 1

Query: Sample "ATKSASPTLPTRRSR" — what was its SPOT intensity?
Response: 1

Query: Sample "HPRFVSPRIPSRIVK" — what was its SPOT intensity?
Response: 0

Query: Sample "RVRKTHVPASKRPSG" — what was its SPOT intensity?
Response: 3
